Origin of values: PubChem BioAssay (NCI)

Consider the following compounds; for each one, report its growth.
tested on: SF-539 CNS; test: NCI-60 one-dose screen, 48 h (100 = growth as untreated, 0 = no growth, -100 = all killed); conditions: 10 µM unless noted
This is part of a sample that, as a whole, favours compounds with a hit. Of some 83,000 tested, about 20% had one in any assay.
Your answer should be a plain number; it is taken to be in %.

# lookup: SF-539 CNS growth, key = `C=CCSc1n[nH]c(-c2cccs2)n1`
98.3

# lookup: SF-539 CNS growth, key = `O=C(c1c[nH]c(=O)c(-c2ccccc2)c1)c1ccccc1O`
108

# lookup: SF-539 CNS growth, key = `O=C1CCCCC1(c1ccccc1)c1ccccc1`
94

# lookup: SF-539 CNS growth, key = O=c1[nH]c2ccc(Br)cc2c2c1C(c1ccc(Cl)cc1)c1c(ncn3nc(-c4ccco4)nc13)O2 (stereo not given)
65.5

# lookup: SF-539 CNS growth, key = `CN1CCN(Cc2ccc(NC(=O)c3nc4ccc5[nH]ncc5c4c4c3CCC4)cc2C(F)(F)F)CC1`
-96

# lookup: SF-539 CNS growth, key = `Cn1ccc(=O)c(S(N)(=O)=O)c1`
103

# lookup: SF-539 CNS growth, key = `COC(=O)c1nc(-c2ccccc2)oc1S(=O)(=O)N1CCN(c2cccc(Cl)c2)CC1`
105

# lookup: SF-539 CNS growth, key = `C=C1c2nc3ccccc3n2C=C(c2ccc(Cl)cc2)N1Cc1ccccc1`
96.4

# lookup: SF-539 CNS growth, key = Cc1ccc2[nH]c(=O)c3c(c2c1)Oc1ncn2nc(-c4ccco4)nc2c1C3c1ccc(Cl)cc1 (stereo not given)
89.8

# lookup: SF-539 CNS growth, key = `C1=Cc2ccccc2N(c2nnc(-c3ccccc3)o2)c2ccccc21`
103

====

test system: HCT-116 colon; assay: NCI-60 one-dose screen, 48 h; conditions: 10 µM unless noted
The panel holds about 83,000 compounds, 20% with a hit somewhere; the sample as a whole holds those more often. Calls of active or inactive are those of the source. How the source made its calls: active means growth percent below 10; inactive means the rest.
Valid outcomes are listed here; reply with one: active, inactive

Could you check what this test reported for `CC(C)(C)n1cc(-c2ccnc(NCCCNS(=O)(=O)c3ccc(F)cc3)c2)c(-c2cccc(O)c2)n1` ?
inactive

Could you check what this test reported for `Cc1nn(-c2ccc(Cl)cc2)c2ncnc(N/N=C/c3cccc([N+](=O)[O-])c3)c12` ?
inactive

Could you check what this test reported for `COc1cccc(CC(C)=C(c2ccc(OCCN(C)C)cc2)c2ccc(OCCN(C)C)cc2)c1` ?
active

Could you check what this test reported for `O=[N+]([O-])c1ccc(-c2cn(-c3ccccc3)c(-c3ccccc3)n2)cc1` ?
inactive

Could you check what this test reported for `Fc1ccc(-c2nc(-c3nc4ncccc4[nH]3)cc3c2[nH]c2ccccc23)cc1F` ?
inactive

Could you check what this test reported for `O=c1ccn(-c2ncnc3nc[nH]c23)cc1` ?
inactive

Could you check what this test reported for `O=C(O)/C=C/C(=O)c1ccc(Cl)cc1` ?
inactive

Could you check what this test reported for `C/C(=N/NC(=S)Nc1ccccc1)c1nc2ccc(Cl)cc2[nH]1` ?
active

Could you check what this test reported for `COc1ccc(/C=C2\Oc3cc(OCCCN4CCCC4)ccc3C2=O)cc1` ?
inactive

Could you check what this test reported for `C=C[C@@H]1C[C@@H]2Cc3cc(F)ccc3N1O2` ?
inactive

====

test system: DU-145 prostate; assay: NCI-60 one-dose screen, 48 h; details: 10 µM unless noted
This is part of a sample that, as a whole, favours compounds with a hit. Of some 83,000 tested, about 20% had one in any assay. Active and inactive are the calls of the source. The calls were made as follows: active = growth percent below 10; inactive = the rest.
Valid outcomes are listed here; reply with one: active, inactive

Could you check what this test reported for `CO[C@H]1NC(=O)N(S(=O)(=O)c2ccc(Cl)cc2)[C@@H]1OC` ?
inactive

Could you check what this test reported for `NC(=O)c1c(NC(=S)Nc2ccc(OC(F)(F)F)cc2)sc2c1CCC1(C2)OCCO1` ?
inactive

Could you check what this test reported for `Oc1ccc(Cl)cc1-c1cc(-c2ccc(F)cc2)n[nH]1` ?
inactive

Could you check what this test reported for `NC(=N\N=C/c1ccc(O)cc1)/C(N)=N\N=C/c1ccc(O)cc1` ?
inactive

Could you check what this test reported for `COc1ccc(Cn2cc3c(c2-c2cc(OC)c(OC)c(OC)c2)CCc2cnoc2-3)cc1` ?
inactive

Could you check what this test reported for `O=C1C(Cl)=C(Nc2ccccn2)C(=O)c2ccccc21` ?
active

Could you check what this test reported for `Nc1nnc(-c2ccc3ccccc3c2O)o1` ?
inactive

Could you check what this test reported for CC1CCC(C)N(C)C1 (stereo unspecified) ?
inactive

Could you check what this test reported for `S=c1[nH]nc(-c2cc3ccc2CCc2ccc(cc2)CC3)n1-c1ccccc1` ?
inactive

Could you check what this test reported for `N#Cc1c(-c2ccccc2)nc(SCC(=O)N2CCN(c3ccccc3)CC2)[nH]c1=O` ?
inactive

Could you check what this test reported for `COc1cc(-c2nn(-c3cccc(NC(=O)Nc4ccc(Cl)c(Cl)c4)c3)cc2-c2ccncc2)ccc1Cl` ?
inactive

====

tested on: NCI-H23 lung; test: NCI-60 one-dose screen, 48 h; conditions: 10 µM unless noted
Compounds without any hit were thinned out: in the full panel of roughly 83,000, 20% have a hit. Activity calls are given as the source filed them. How the source made its calls: active means growth percent below 10; inactive means the rest.
Valid outcomes are listed here; reply with one: active, inactive

Could you check what this test reported for COc1ccc2c(c1)C(c1cc(OC)c3c(c1)OCO3)C1=C(COC1=O)N2 (stereo not given) ?
inactive

Could you check what this test reported for `c1coc(CNc2ccnc(Nc3ccc(OCCN4CCCCC4)cc3)n2)c1` ?
inactive

Could you check what this test reported for C=C1CCC2C3(C)COC(c4c(OC)cccc4OC)OC3CCC2(C)C1C/C=C1/C(=O)OCC1O (stereo not given) ?
inactive

Could you check what this test reported for `C=C1CCC[C@]2(C)CCC[C@H](C)[C@@H](OC(C)=O)[C@@H]3OC(=O)C(=C)[C@@H]3C[C@H]1O2` ?
inactive

Could you check what this test reported for `Nc1cc2c([nH]c[n+]2CC#CCCl)c(SCC#CCCl)n1` ?
active

Could you check what this test reported for `COc1cc(-c2nn(-c3cccc(NC(=O)c4ccc(N5CCOCC5)c(C(F)(F)F)c4)c3)cc2-c2ccncc2)ccc1Cl` ?
inactive

Could you check what this test reported for `CC1=NC2=CC=CC3=NC(C(Cl)(Cl)Cl)=NC(=N1)N23` ?
inactive

Could you check what this test reported for `CN1CCN(Cc2ccc(NC(=O)c3cncc(C#Cc4cnc(N)c5cnccc45)c3)cc2C(F)(F)F)CC1` ?
active

Could you check what this test reported for CCCCCCCCC(C)OC(=O)c1nn(C(C)=O)c2ccccc12 (stereo not given) ?
inactive

Could you check what this test reported for `S=C(S)NCCc1c[nH]c2ccccc12` ?
inactive

====

tested on: NCI-H23 lung; test: NCI-60 one-dose screen, 48 h; conditions: 10 µM unless noted
About 83,000 compounds went through this panel and 20% of them were active in at least one assay; those are over-represented in the sample as a whole. Activity calls are given as the source filed them. The calls were made as follows: active = growth percent below 10; inactive = the rest.
Valid outcomes are listed here; reply with one: active, inactive

Could you check what this test reported for O=C(CSC1CCc2ccccc21)N/N=C/c1ccccc1O (stereo not given) ?
inactive

Could you check what this test reported for CC1CCC(C)N(C)C1 (stereo not given) ?
inactive

Could you check what this test reported for `COc1ccc(OC)c(/C=C2\Oc3cc(OCCCN4CCCC4)ccc3C2=O)c1` ?
inactive

Could you check what this test reported for `COc1cc2c(=O)n(C3CCCCCC3)c3c4cc[nH]c4ncc3c2cc1OC` ?
inactive

Could you check what this test reported for `CN(C)c1cccc2c(S(=O)(=O)/N=C(\N)Nc3nc4ccccc4s3)cccc12` ?
inactive

Could you check what this test reported for `Cn1ncc2c(Sc3ccc(Cl)cc3)ncnc21` ?
inactive

Could you check what this test reported for `Cc1ccc(C(=O)C2=Cc3cc4ccccc4n3Cc3cnnn32)cc1` ?
inactive

Could you check what this test reported for `O=C(Nc1ccncc1)C(=O)c1cn(S(=O)(=O)c2ccccc2F)c2ccccc12` ?
inactive

Could you check what this test reported for `COc1ccc(-c2ccc(C)n2-c2ccc(-c3nc4ccccc4s3)cc2)cc1` ?
inactive

Could you check what this test reported for `CCNc1nc(S(=O)(=O)CC)nc2ccccc12` ?
inactive

Could you check what this test reported for `COC(=O)c1nc(-c2ccccc2)oc1S(=O)(=O)N1CCN(c2cccc(Cl)c2)CC1` ?
inactive

Could you check what this test reported for CC(C)(C)c1[nH]nc2c1C(c1cc3ccccc3[nH]c1=O)Nc1cc(C(=O)Nc3ccc(Cl)cc3)ccc1N2 (stereo not given) ?
inactive

Could you check what this test reported for `C=C1C(=O)O[C@H]2[C@H]1CC/C(Cn1cc(CNC(=O)Cc3cn(C(=O)c4ccc(Cl)cc4)c4ccc(OC)cc34)nn1)=C\CC[C@@]1(C)O[C@@H]21` ?
inactive

Could you check what this test reported for `COc1ccc(/C=N\NC(=O)CN2CCN(c3cc4c(cc3F)c(=O)c(C(=O)N/N=C/c3ccc(OC)c(OC)c3)cn4C3CC3)CC2)cc1OC` ?
active

Could you check what this test reported for `COc1ccc2c(c1)[nH]c(=O)c1c3cccc(F)c3cn21` ?
inactive

Could you check what this test reported for `COc1ccc2c(c1)cn1c3ccc(OC)cc3[nH]c(=O)c21` ?
inactive

Could you check what this test reported for `CCCCOc1ccc(/C=C2/SC(N3CCCC3)=NC2=O)cc1` ?
inactive

Could you check what this test reported for `O=C1/C(=C/c2ccc([N+](=O)[O-])cc2)CN(C(=O)CCN2CCC(=NO)CC2)C/C1=C\c1ccc([N+](=O)[O-])cc1` ?
active

Could you check what this test reported for COc1ccc(C2C=C(c3ccc(N)cc3)N=C3SC=CN32)cc1OC (stereo not given) ?
inactive

Could you check what this test reported for `C=CCn1c2ccccc2c2c3c(c4c5ccccc5n(CC=C)c4c21)C(=O)N(O)C3=O` ?
inactive

Could you check what this test reported for `COc1ccc(S(=O)(=O)NCCCNc2nccc(-c3c(-c4cccc([N+](=O)[O-])c4)nc4sccn34)n2)cc1` ?
inactive

Could you check what this test reported for `O=C(NNC(=O)N1c2ccccc2C=Cc2ccccc21)c1ccccc1` ?
inactive

Could you check what this test reported for `Nc1cc2c(cc1C(=O)c1cccc(F)c1)OCCO2` ?
inactive

Could you check what this test reported for `CCCCN(CCCC)C(=N)c1ccnc2ccccc12` ?
inactive

Could you check what this test reported for `COc1cc(C(=O)/C=C/c2ccc3nc(-c4cc(F)cc(F)c4)sc3c2)cc(OC)c1OC` ?
inactive

Could you check what this test reported for Cc1ccc(N2CCN(C(C)C(N)=O)CC2)cc1 (stereo not given) ?
inactive

Could you check what this test reported for `Fc1ccccc1-c1nc(-c2nc3cc(Cl)c(Cl)cc3[nH]2)c2ccccn12` ?
inactive

Could you check what this test reported for `O=C1CS/C(=N\Nc2cc(=O)[nH]c3ccccc23)N1c1ccccc1` ?
inactive

Could you check what this test reported for `O=C(Nc1cccc(-n2cc(-c3ccncc3)c(-c3ccc(Cl)c(O)c3)n2)c1)Nc1ccc(Cl)c(C(F)(F)F)c1` ?
active

Could you check what this test reported for `O=[N+]([O-])c1cccc(-c2nc3sccn3c2-c2ccnc(NCCCNS(=O)(=O)c3ccc(C(F)(F)F)cc3)n2)c1` ?
inactive

Could you check what this test reported for NC1=NC(SCc2ccccc2CCl)c2ncn(Cc3ccccc3CCl)c2N1 (stereo not given) ?
inactive

Could you check what this test reported for `C=C(C)[C@@H]1C[C@@H]2Cc3ccc(Cl)c(C)c3N1O2` ?
inactive

Could you check what this test reported for CC12CCC3C4(C)COC(c5ccccc5Cl)OC4CCC3(C)C1CC(C1=CCOC1=O)O2 (stereo not given) ?
inactive

Could you check what this test reported for `O=C(Nc1ccncc1)C(=O)c1cn(S(=O)(=O)c2ccc(Cl)cc2)c2ccccc12` ?
inactive

Could you check what this test reported for `Cc1ccc(S(=O)(=O)NCCNc2nccc(-c3c(-c4cccc(N)c4)nc4sccn34)n2)cc1` ?
inactive

Could you check what this test reported for `Cc1ccc(-c2cc3nc(C(Cl)Cl)nc(-c4cccnc4)n3n2)cc1` ?
active

Could you check what this test reported for C=C1CCC2C3(C)COC(C)(C)OC3CCC2(C)C1C/C=C1/C(=O)OCC1Oc1ccccc1OC (stereo not given) ?
inactive

Could you check what this test reported for CCN(CC)CCC(CNc1c2ccc(Cl)cc2nc2ccc(OC)cc12)c1ccccc1 (stereo not given) ?
inactive

Could you check what this test reported for `COc1ccc(C(=O)N2NC(=O)/C(=C/c3cn(-c4ccccc4)nc3-c3ccccc3)N=C2c2ccccc2)cc1` ?
inactive

Could you check what this test reported for `Cc1cc(C2(c3cc(C)c(O)cc3C)OS(=O)(=O)c3ccccc32)c(C)cc1O` ?
inactive
